Listing: TGI of selected compounds
System: PC-3 prostate
Test: NCI tumour cell line growth inhibition, 48 h

Q) For PC-3 prostate, provide TGI of CCC[CH2][Sn]1([CH2]CCC)[O]C(=O)c2ccc(N)cc2[O]1 please.
A) 2.23 µM

New cases:
Q) For PC-3 prostate, provide TGI of CC(C)(C)C(=O)N1CCN(C=O)C1=S please.
A) > 100 µM

Q) For PC-3 prostate, provide TGI of Cc1c(C#N)c(=N)oc2ccccc12 please.
A) > 100 µM

Q) For PC-3 prostate, provide TGI of CC(C#N)N(CCc1ccccc1)C(=O)c1ccccc1 (configuration not stated) please.
A) > 100 µM

Q) For PC-3 prostate, provide TGI of C=C(CCOC)CCC1CCCCC(=C)[C@H]1O (some centres not stated) please.
A) > 100 µM

Q) For PC-3 prostate, provide TGI of CCOC(=O)Nc1nc2cc(OCC)ccc2s1 please.
A) > 100 µM

Q) For PC-3 prostate, provide TGI of CC1(C)[C@@H](OC(N)=O)C=C[C@]2(CO)[C@H]3CC[C@]4(C)[C@@H](c5ccc(=O)oc5)[C@@H](Cl)C[C@]4(O)C3=CC[C@@H]12 please.
A) 0.0137 µM
